This collection of values is drawn from patent US20260007643A1.

protocolNotes: Solubility of harmine in the solvents used in the salt screening
Assay type: physicochemical
conditions: methanol, 45 °C, organic solvent or mixture
readoutType: solubility (mg/mL)
Please reply with the bare figure in mg/mL and do not write the unit itself.

What value of measured solubility is listed for `COc1ccc2c(c1)[nH]c1c(C)nccc12` ?
12

---

protocolNotes: Solubility of harmine in the solvents used in the salt screening
Format: physicochemical
conditions: dimethyl sulfoxide (DMSO), organic solvent or mixture
readoutType: solubility (mg/mL)
Please reply with the bare figure in mg/mL and do not write the unit itself.

What value of measured solubility is listed for COc1ccc2c(c1)[nH]c1c(C)nccc12 [Harmine] ?
13

---

protocolNotes: Blood plasma profiles of harmine and harmol in healthy volunteers
Format: in vivo, Human
conditions: human, plasma; oral administration, ~3.5 mg/kg
readoutType: Cmax

What value of measured Cmax is listed for COc1ccc2c(c1)[nH]c1c(C)nccc12.Cl [Harmine HCl, reference compound] ?
~80 ng/mL

---

Would you kindly list solubility at 48 h for each of these compounds?
protocolNotes: Solubility testing of harmine salts (gravimetric, temperature-dependent)
Type: physicochemical
conditions: water, thermodynamic from solid; H2O, 37° C.; read-out: Solubility at 37° C. (H20)
# include the unit after the value

What value of measured solubility at 48 h is listed for COc1ccc2c(c1)[nH]c1c(C)nccc12.Cl [Harmine HCl, reference compound] ?
53.1 mg/mL

What value of measured solubility at 48 h is listed for COc1ccc2c(c1)[nH]c1c(C)nccc12.O=P(O)(O)O [Harmine Phosphate] ?
12.9 mg/mL

---

protocolNotes: Solubility of harmine in the solvents used in the salt screening
Type: physicochemical
conditions: dimethylformamide (DMF), organic solvent or mixture; dimethylformamid (DMF); souble
readoutType: solubility (mg/mL)
Please reply with the bare figure in mg/mL and do not write the unit itself.

What value of measured solubility is listed for COc1ccc2c(c1)[nH]c1c(C)nccc12 [Harmine] ?
33

---

protocolNotes: Solubility testing of harmine salts (gravimetric, temperature-dependent)
Format: physicochemical
conditions: ethanol, organic solvent or mixture, thermodynamic from solid; EtOH, 25° C.; read-out: Solubility at 25° C. (EtOH)
Would you kindly list solubility at 48 h for each of these compounds?
Please reply with the bare figure in µg/mL and do not write the unit itself.

What value of measured solubility at 48 h is listed for COc1ccc2c(c1)[nH]c1c(C)nccc12.Cl [Harmine HCl, reference compound] ?
6790

What value of measured solubility at 48 h is listed for COc1ccc2c(c1)[nH]c1c(C)nccc12.O=P(O)(O)O [Harmine Phosphate] ?
580

---

protocolNotes: Solubility testing of harmine salts (gravimetric, temperature-dependent)
Assay type: physicochemical
conditions: ethanol, organic solvent or mixture, thermodynamic from solid; EtOH, 37° C.; read-out: Solubility at 37° C. (EtOH)
readoutType: solubility at 48 h (µg/mL)
Please reply with the bare figure in µg/mL and do not write the unit itself.

What value of measured solubility at 48 h is listed for COc1ccc2c(c1)[nH]c1c(C)nccc12.Cl [Harmine HCl, reference compound] ?
7950

What value of measured solubility at 48 h is listed for COc1ccc2c(c1)[nH]c1c(C)nccc12.O=P(O)(O)O [Harmine Phosphate] ?
550

---

protocolNotes: Solubility of harmine in the solvents used in the salt screening
Format: physicochemical
conditions: pyridine, organic solvent or mixture
readoutType: solubility (mg/mL)
Please reply with the bare figure in mg/mL and do not write the unit itself.

What value of measured solubility is listed for COc1ccc2c(c1)[nH]c1c(C)nccc12 [Harmine] ?
205

---

protocolNotes: Solubility of harmine in the solvents used in the salt screening
Type: physicochemical
conditions: 2-picoline, organic solvent or mixture
readoutType: solubility (µg/mL)
Please reply with the bare figure in µg/mL and do not write the unit itself.

What value of measured solubility is listed for `COc1ccc2c(c1)[nH]c1c(C)nccc12` ?
10000

---

protocolNotes: Solubility testing of harmine salts (gravimetric, temperature-dependent)
Assay type: physicochemical
conditions: water, thermodynamic from solid; H2O, 25° C.; read-out: Solubility at 25° C. (H2O)
Would you kindly list solubility at 48 h for each of these compounds?
Please reply with the bare figure in mg/mL and do not write the unit itself.

What value of measured solubility at 48 h is listed for COc1ccc2c(c1)[nH]c1c(C)nccc12.O=P(O)(O)O [Harmine Phosphate] ?
11

What value of measured solubility at 48 h is listed for COc1ccc2c(c1)[nH]c1c(C)nccc12.Cl [Harmine HCl, reference compound] ?
24.9
